assay: solvent given as SMILES; conditions: in C1CCOC1

| molecule | emission maximum / nm |
| --- | --- |
| CCc1c(C)[nH]c(C2=[N+]3C(=C(C)c4c(C)c(CC)c(C)n4[B-]3(F)F)c3ccccc32)c1C | 656 |
| CCCCN(c1ccccc1)c1ccc2c(c1)C(CC)(CC)c1cc(/C=C/c3ccc(/C=C(\C#N)C(=O)O)s3)ccc1-2 | 622 |
| CCC1(CC)c2ccccc2-c2c1c1c(c3c2C(CC)(CC)c2cc(/C=C/c4cccs4)ccc2-3)C(CC)(CC)c2ccccc2-1 | 395 |
| CC1(C)c2cc(/C=C/c3nc(/C=C/c4ccc5c(c4)C(C)(C)c4cc(N(c6ccccc6)c6ccc7ccccc7c6)ccc4-5)nc(/C=C/c4ccc5c(c4)C(C)(C)c4cc(N(c6ccccc6)c6ccc7ccccc7c6)ccc4-5)n3)ccc2-c2ccc(N(c3ccccc3)c3ccc4ccccc4c3)cc21 | 440 |
| CCC1(CC)c2ccccc2-c2c1c1c(c3c2C(CC)(CC)c2cc(-c4cccs4)ccc2-3)C(CC)(CC)c2cc(N(c3ccccc3)c3ccccc3)ccc2-1 | 422 |
| CN(C)c1cc(C#N)c(N(C)C)c(C#N)c1 | 518.13 |
| CCCCC1(c2ccccc2)Nc2c(-c3ccc(N(c4ccccc4)c4ccccc4)cc3)ccc(-c3ccc(N(c4ccccc4)c4ccccc4)cc3)c2N=C1c1ccccc1 (stereo not drawn) | 554 |
| CON(OC)c1cc2c3cc(-c4c(C)cc(C)cc4C)cc4c5cc(-c6c(C)cc(C)cc6C)cc6c7cc(B(c8c(C)cc(C)cc8C)c8c(C)cc(C)cc8C)cc8c9cc(-c%10c(C)cc(C)cc%10C)cc%10c%11cc(-c%12c(C)cc(C)cc%12C)cc%12c(c1)c2c1c(c43)c(c65)c(c78)c(c9%10)c1c%11%12 | 591 |
